Target: 5-hydroxytryptamine receptor 1A (Homo sapiens, UniProt P08908); further: assay procedure not described here
Sequence (P08908 whole entry): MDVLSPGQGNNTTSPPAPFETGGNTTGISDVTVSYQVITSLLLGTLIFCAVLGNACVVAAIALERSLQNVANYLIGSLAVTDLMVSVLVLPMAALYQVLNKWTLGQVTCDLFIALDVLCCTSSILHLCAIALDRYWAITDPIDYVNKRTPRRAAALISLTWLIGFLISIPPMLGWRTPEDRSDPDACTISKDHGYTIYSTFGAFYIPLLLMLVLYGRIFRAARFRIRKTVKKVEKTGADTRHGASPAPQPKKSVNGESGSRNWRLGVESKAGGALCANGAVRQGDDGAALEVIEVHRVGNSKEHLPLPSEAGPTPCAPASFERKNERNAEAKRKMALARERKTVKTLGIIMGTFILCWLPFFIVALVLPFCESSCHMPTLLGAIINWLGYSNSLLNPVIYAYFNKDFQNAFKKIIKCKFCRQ
Assay type: functional, cell-based
Recorded AC50 values for a group of molecules are listed next.

{"columns": ["MOLECULE", "READOUT VALUE"],
 "data": [
  ["CC(C)N(CCC(C(N)=O)(c1ccccc1)c1ccccn1)C(C)C (configuration not stated) [DISOPYRAMIDE]", "> 10 µM"]
]}

I'd like to know its AC50. The molecule in question is CCN(CC)C(=O)Nc1ccc(OCC(O)CNC(C)(C)C)c(C(C)=O)c1 (configuration not stated) > 30 µM

Consider next the molecule CCC(=O)O[C@]1(C(=O)SCF)[C@H](C)C[C@H]2[C@@H]3C[C@H](F)C4=CC(=O)C=C[C@]4(C)[C@@]3(F)[C@@H](O)C[C@@]21C [FLUTICASONE PROPIONATE] in the same way. > 30 µM

Consider next the molecule CCN(CC)CCNC(=O)c1c(C)[nH]c(/C=C2\C(=O)Nc3ccc(F)cc32)c1C in the same way. > 30 µM

Consider next the molecule CCOC(=O)C1=C(C)NC(C)=C(C(=O)OC)C1c1cccc([N+](=O)[O-])c1 (configuration not stated) in the same way. > 10 µM

Consider next the molecule N[C@@H](CC(=O)N1CCn2c(nnc2C(F)(F)F)C1)Cc1cc(F)c(F)cc1F in the same way. > 30 µM

Consider next the molecule C=C1/C(=C\C=C2/CCC[C@]3(C)[C@@H]([C@H](C)/C=C/[C@@H](O)C4CC4)CC[C@@H]23)C[C@@H](O)C[C@@H]1O in the same way. 27 µM
